- system: CDK9 (Homo sapiens)
- Sequence (P50750 whole entry, species assumed): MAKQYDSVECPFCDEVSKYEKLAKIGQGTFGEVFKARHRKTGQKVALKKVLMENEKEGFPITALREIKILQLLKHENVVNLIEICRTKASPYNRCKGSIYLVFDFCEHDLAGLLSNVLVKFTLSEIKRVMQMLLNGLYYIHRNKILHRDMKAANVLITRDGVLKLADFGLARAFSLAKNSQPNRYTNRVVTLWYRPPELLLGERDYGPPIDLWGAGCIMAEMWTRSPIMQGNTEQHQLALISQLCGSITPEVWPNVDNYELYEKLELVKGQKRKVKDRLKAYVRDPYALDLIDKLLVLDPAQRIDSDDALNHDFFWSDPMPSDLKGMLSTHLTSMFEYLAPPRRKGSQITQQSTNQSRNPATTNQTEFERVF
- Sequence (O60563 whole entry partner, species assumed): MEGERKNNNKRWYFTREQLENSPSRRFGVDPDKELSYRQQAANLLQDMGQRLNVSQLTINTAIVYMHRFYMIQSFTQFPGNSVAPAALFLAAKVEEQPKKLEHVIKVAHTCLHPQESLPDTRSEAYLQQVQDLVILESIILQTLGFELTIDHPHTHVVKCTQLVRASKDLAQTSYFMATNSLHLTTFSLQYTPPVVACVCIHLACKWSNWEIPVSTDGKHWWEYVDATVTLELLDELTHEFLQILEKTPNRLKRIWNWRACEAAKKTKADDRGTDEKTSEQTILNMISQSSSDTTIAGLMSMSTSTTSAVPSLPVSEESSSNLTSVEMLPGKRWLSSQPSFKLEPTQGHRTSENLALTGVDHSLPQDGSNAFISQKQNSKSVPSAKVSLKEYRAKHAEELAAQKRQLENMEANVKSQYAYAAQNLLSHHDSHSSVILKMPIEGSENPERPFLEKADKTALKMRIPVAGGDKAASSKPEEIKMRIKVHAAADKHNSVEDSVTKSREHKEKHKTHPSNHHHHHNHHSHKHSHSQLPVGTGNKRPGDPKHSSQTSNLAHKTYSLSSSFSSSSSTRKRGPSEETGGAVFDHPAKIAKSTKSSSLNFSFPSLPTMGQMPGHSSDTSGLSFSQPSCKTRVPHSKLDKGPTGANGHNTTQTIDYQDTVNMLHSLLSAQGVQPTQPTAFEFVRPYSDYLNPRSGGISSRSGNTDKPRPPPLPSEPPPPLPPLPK
- assay-details: In-vitro kinase inhibitory activity, CDK9 (selectivity)
- Format: biochemical
- test-conditions: read-out: IC50 (half maximal inhibitory concentration, nM) CDK9
Counter-ions that a name gives are not always drawn.
Measured IC50, listed per entry for reference.
Report the figure in nM without appending any unit label.

Reference set (3 entries):
Please look up its IC50: CC(=O)c1c(C)c2cnc(Nc3ccc(N4CCN(CCN5CCN(c6c(F)cc7c(c6F)CN(C6CCC(=O)NC6=O)C7=O)CC5)CC4)cn3)nc2n(C2CCCC2)c1=O.Cl.Cl (stereo not drawn) [Compound 23, dihydrochloride]
4580

Please look up its IC50: CC(=O)c1c(C)c2cnc(Nc3ccc(N4CCN(CCN5CCN(c6ccc7c(c6Cl)CN(C6CCC(=O)NC6=O)C7=O)CC5)CC4)cn3)nc2n(C2CCCC2)c1=O (stereo not drawn) [Compound 21, dihydrochloride]
3950

Please look up its IC50: CC(=O)c1c(C)c2cnc(Nc3ccc(N4CCN(CCN5CCC(CC6CCN(c7ccc8c(c7)CN(C7CCC(=O)NC7=O)C8=O)CC6)CC5)CC4)cn3)nc2n(C2CCCC2)c1=O (stereo not drawn) [Compound 10]
4150

API: the following record is the query input.
Please look up its IC50: CC(=O)c1c(C)c2cnc(Nc3ccc(N4CCN(CCN5CCN(c6ccc7c(c6Cl)CN(C6CCC(=O)NC6=O)C7=O)CC5)CC4)cn3)nc2n(C2CCCC2)c1=O (stereo not drawn) [Compound 20]
3760
